target: T1, β2-Microglobulin (Homo sapiens, UniProt P61769); assay: SPR; Biacore T200; β2M immobilised on a CM5 chip to 150 RU; VHH samples after the modification procedure (NHS-Fluo:VHH 0, 1, 5 or 20; 2 h at 4 °C, ultrafiltration) in 2-fold serial dilution, 30 μL/min, HBS-EP+, 25 °C; 1:1 model with drift and RI2; conditions: both partners purified
T1 construct: human β2-microglobulin; Amine-coupled to a CM5 chip (150 RU); also called antigen β2M; source: expressed and purified as previously described [27]
T1 sequence (P61769 21-119): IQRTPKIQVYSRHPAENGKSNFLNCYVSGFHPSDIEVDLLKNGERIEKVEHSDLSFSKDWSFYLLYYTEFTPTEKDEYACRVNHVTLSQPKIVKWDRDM
Measured Property: Kd (µM)
Just the number please, in µM, no unit attached.

Example entries and their recorded answers appear below.
| Binder | Kd (µM) |
| --- | --- |
| NB-3 modified with 1 time of NHS-Fluo (VHH, as the VHH domain of Dm10; flexible (G4S)4 linker between the VHH domain and the His6 tag, written out from '(G4S)4'; A mixture of isomers with different numbers and places of fluorescein; also called NB-3-1; source: E. coli SHuffle T7, purified (HisTrap HP), modified with NHS-Fluo, ultrafiltration) VHH: QVQLVESGGGLVQPGGSLRLSCAASGFSLDYYAIGWFRQAPGKEREGVSCISSSDDSTYYAGSVKGRFKISRDNAKSTVYLQMNSLKPEDSAVYYCAALHSGNYYYTPSYICDAEMDYWGKGTLVTVSS | 3.49 |
| NB-3 modified with 5 times of NHS-Fluo (VHH, as the VHH domain of Dm10; flexible (G4S)4 linker between the VHH domain and the His6 tag, written out from '(G4S)4'; A mixture of isomers with different numbers and places of fluorescein; also called NB-3-5; source: E. coli SHuffle T7, purified (HisTrap HP), modified with NHS-Fluo, ultrafiltration) VHH: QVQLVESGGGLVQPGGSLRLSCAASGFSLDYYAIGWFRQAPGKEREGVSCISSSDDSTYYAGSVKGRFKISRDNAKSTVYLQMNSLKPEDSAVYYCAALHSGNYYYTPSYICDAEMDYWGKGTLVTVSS | 6.62 |
| NB-2 modified with 5 times of NHS-Fluo (VHH, as the VHH domain of Dm6; flexible (G4S)4 linker between the VHH domain and the His6 tag, written out from '(G4S)4'; A mixture of isomers with different numbers and places of fluorescein; also called NB-2-5; source: E. coli SHuffle T7, purified (HisTrap HP), modified with NHS-Fluo, ultrafiltration) VHH: QVQLVESGGGLVQHGGSLRLSCAASGSAFSTYSMTWHRQAPGKGREWVAGVDRSNSDTNYADSVKGRFTIYRDNAQNTVYLRMNSLKPEDTAVYYCSAERLDGSVRREYWGQGTQVTVSS | 9.37 |
| NB-2 modified with 1 time of NHS-Fluo (VHH, as the VHH domain of Dm6; flexible (G4S)4 linker between the VHH domain and the His6 tag, written out from '(G4S)4'; A mixture of isomers with different numbers and places of fluorescein; also called NB-2-1; source: E. coli SHuffle T7, purified (HisTrap HP), modified with NHS-Fluo, ultrafiltration) VHH: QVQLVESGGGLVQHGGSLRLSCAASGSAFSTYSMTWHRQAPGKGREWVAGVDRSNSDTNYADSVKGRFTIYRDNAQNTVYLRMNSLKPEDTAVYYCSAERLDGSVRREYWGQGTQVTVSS | 2.53 |
| NB-1 modified with 1 time of NHS-Fluo (VHH, as the VHH domain of Dm2; flexible (G4S)4 linker between the VHH domain and the His6 tag, written out from '(G4S)4'; A mixture of isomers with different numbers and places of fluorescein, unmodified VHH among them; also called NB-1-1; source: E. coli SHuffle T7, purified (HisTrap HP), modified with NHS-Fluo, ultrafiltration) VHH: QVQLVESGGGLVQAGGSLRLSCAASGSTLDSYYIGWFRQAPGKEREGVSCISSSGNSIRYVDSVKDRFTISRDNGKNTAYLHINSLRPEDTAVYYCAASRRGRKPGLPCSLVRERYAYWGQGTQVTVSS | 0.177 |

Alright, here's another binder for you.
// Kd value for NB-1 modified with 5 times of NHS-Fluo (VHH, as the VHH domain of Dm2; flexible (G4S)4 linker between the VHH domain and the His6 tag, written out from '(G4S)4'; A mixture of isomers with different numbers and places of fluorescein; also called NB-1-5; source: E. coli SHuffle T7, purified (HisTrap HP), modified with NHS-Fluo, ultrafiltration) VHH: QVQLVESGGGLVQAGGSLRLSCAASGSTLDSYYIGWFRQAPGKEREGVSCISSSGNSIRYVDSVKDRFTISRDNGKNTAYLHINSLRPEDTAVYYCAASRRGRKPGLPCSLVRERYAYWGQGTQVTVSS : 0.202
